Please go through the items and note down their HEMOGLOBIN.
species on record: Rattus norvegicus; assay: DrugMatrix - Regimen: Daily Repeat; assay type: toxicity, organism-based, Sprague-Dawley; parameters: regimen Daily Repeat, gender Male, age 6-8 weeks; conditions: in vivo, iv, 0 mg/kg, 120 h, tissue Blood, dose level Control, time 5 day, vehicle 100 % SALINE
Starred links: 1 amine or outer side, 2 acyl side, 3 side chain; linkers in the order of their positions; H or OH if unused. Positions of bridges follow the written chain, without caps; N, C: chain ends. Non-standard residues stand in square brackets, D forms with d. Residues, ends and D or L forms follow the SMILES beside them. Chains are numbered I, II in the order given. Actinocin(9to1) = Cc1c2oc3c(C)ccc(C(=O)[*:1])c3nc-2c(C(=O)[*:2])c(N)c1=O; NMeV = CN[C@H](C(=O)O)C(C)C; Sar = CNCC(=O)O
Number first, unit second.

molecule	HEMOGLOBIN
COc1cc2c3cc1Oc1cc(ccc1O)C[C@@H]1c4c(cc(OC)c(O)c4Oc4ccc(cc4)C[C@@H]3N(C)CC2)CC[N+]1(C)C.[Cl-]	13.73 G/DL
Cc1ccc(N(CC2=NCCN2)c2cccc(O)c2)cc1	13.33 G/DL
Cc1c2oc3c(C)ccc(C(=O)N[C@@H]4C(=O)N[C@H](C(C)C)C(=O)N5CCC[C@H]5C(=O)N(C)CC(=O)N(C)[C@@H](C(C)C)C(=O)O[C@@H]4C)c3nc-2c(C(=O)N[C@@H]2C(=O)N[C@H](C(C)C)C(=O)N3CCC[C@H]3C(=O)N(C)CC(=O)N(C)[C@@H](C(C)C)C(=O)O[C@@H]2C)c(N)c1=O [DACTINOMYCIN] (I: T[dV]P[Sar][NMeV] / II: T[dV]P[Sar][NMeV]; ester I:1-I:C, II:1-II:C; linker I:N-II:N via Actinocin(9to1))	13.82 G/DL

[in] State the recorded HEMOGLOBIN for this entry: `CC[C@]1(O)C[C@H]2CN(CCc3c([nH]c4ccccc34)[C@@](C(=O)OC)(c3cc4c(cc3OC)N(C=O)[C@H]3[C@@](O)(C(=O)OC)[C@H](OC(C)=O)[C@]5(CC)C=CCN6CC[C@]43[C@@H]65)C2)C1`
[out] 13.22 G/DL

---

species on record: Rattus norvegicus; assay: DrugMatrix - Regimen: Daily Repeat; type: toxicity, organism-based, Sprague-Dawley; design: regimen Daily Repeat, gender Male, age 6-8 weeks; details: in vivo, po, 0 mg/kg, 72 h, tissue Plasma, route oral GAVAGE, dose level Control, time 3 day, vehicle .5 % CMC
Please go through the items and note down their URIC ACID.
Give bare numbers, in mg/dL.

Example entries and their recorded answers appear below.
>>> print(df.to_string())
                                   compound  recordednumber
0  Cc1ccc(/N=C/N(C)/C=N/c2ccc(C)cc2C)c(C)c1 [AMITRAZ]            1.55
1  CN1CCN(CCCN2c3ccccc3Sc3ccc(Cl)cc32)CC1 [PROCHLORPERAZINE]            1.72

Below is a list of compounds. For each, state its recorded URIC ACID.
1. CCCN1C[C@H](CSC)C[C@@H]2c3cccc4[nH]cc(c34)C[C@H]21 [PERGOLIDE]
2. ClC(Br)Br [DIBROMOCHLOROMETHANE]
3. Nc1ccn([C@H]2CC[C@@H](CO)O2)c(=O)n1 [ZALCITABINE]
4. COc1nc(C)nc(Cl)c1N=C1NCCN1 [MOXONIDINE]
5. CC(C)(C)NC(=O)[C@@H]1C[C@@H]2CCCC[C@@H]2CN1C[C@@H](O)[C@H](Cc1ccccc1)NC(=O)[C@H](CC(N)=O)NC(=O)c1ccc2ccccc2n1

[out]
1. 1.5
2. 1.4
3. 1.03
4. 1.48
5. 1.63

Below is a list of compounds. For each, state its recorded URIC ACID.
1. CCOP(=S)(OCC)Oc1nc(Cl)c(Cl)cc1Cl [CHLORPYRIFOS]
2. CCn1cc(C(=O)O)c(=O)c2cc(F)c(N3CCNCC3)cc21 [NORFLOXACIN]
3. ClC(Cl)Br [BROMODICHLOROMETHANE]

[out]
[1.57, 1.55, 1.4]

---

organism: Rattus norvegicus; assay: DrugMatrix - Regimen: Daily Repeat; type: toxicity, organism-based, Sprague-Dawley; design: regimen Daily Repeat, gender Male, age 6-8 weeks; details: in vivo, po, 0 mg/kg, 72 h, tissue Blood, route oral GAVAGE, dose level Control, time 3 day, […]
measurementName: ERYTHROCYTE COUNT (x10E6/uL)
Give bare numbers, in x10E6/uL.

Example entries and their recorded answers appear below.
molecule	unitAbbrev	ERYTHROCYTE COUNT
C[C@H]1O[C@@H](O[C@H]2[C@@H](O)C[C@H](O[C@H]3[C@@H](O)C[C@H](O[C@H]4CC[C@@]5(C)[C@H](CC[C@@H]6[C@@H]5C[C@@H](O)[C@]5(C)[C@@H](C7=CC(=O)OC7)CC[C@]65O)C4)O[C@@H]3C)O[C@@H]2C)C[C@H](O)[C@@H]1O [DIGOXIN]	x10E6/uL	5.53
O=c1oc2ccccc2c(O)c1Cc1c(O)c2ccccc2oc1=O [DICUMAROL]	x10E6/uL	5.43

[in] State the recorded ERYTHROCYTE COUNT for this entry: CN(C)c1nc(N(C)C)nc(N(C)C)n1 [ALTRETAMINE]
[out] 5.61

---

species: Rattus norvegicus; test: DrugMatrix - Regimen: Daily Repeat; format: toxicity, organism-based, Sprague-Dawley; parameters: regimen Daily Repeat, gender Male, age 6-8 weeks; details: in vivo, po, 0 mg/kg, 120 h, tissue Blood, route oral GAVAGE, dose level Control, time 5 day, vehicle .5 % CMC
Please go through the items and note down their NEUTROPHIL.
Numbers only, in %.

In [3]: df
Out[3]:
                                   compound  measurementname  recordednumber
0          CCOP(=S)(OCC)Oc1nc(Cl)c(Cl)cc1Cl       NEUTROPHIL            8.67
1  CC1CC(OC(=O)C(O)c2ccccc2)CC(C)(C)C1 (centres undefined) [CYCLANDELATE]       NEUTROPHIL              15
2  CCCN1C[C@H](CSC)C[C@@H]2c3cccc4[nH]cc(c34)C[C@H]21 [PERGOLIDE]       NEUTROPHIL            7.67

// below: NEUTROPHIL requested for another compound
[in] State the recorded NEUTROPHIL for this entry: `CN1CCN(CCCN2c3ccccc3Sc3ccc(Cl)cc32)CC1`
[out] 6.67

---

species: Rattus norvegicus; assay: DrugMatrix - Regimen: Daily Repeat; format: toxicity, organism-based, Sprague-Dawley; set-up: regimen Daily Repeat, gender Male, age 6-8 weeks; settings: in vivo, po, 0 mg/kg, 120 h, tissue Plasma, route oral GAVAGE, dose level Control, time 5 day, vehicle .5 % CMC
measurementName: ALANINE AMINOTRANSFERASE (u/L)
One number for each entry, in u/L.

Example entries and their recorded answers appear below.
>>> print(df.to_string())
                                   compound  recordednumber
0          CCOP(=S)(OCC)Oc1nc(Cl)c(Cl)cc1Cl            37.5
1  CCn1cc(C(=O)O)c(=O)c2cc(F)c(N3CCNCC3)cc21           54.17
2  NC1=NC(=O)C(c2ccccc2)O1 (centres undefined)           38.67
3                                 ClC(Br)Br            58.5
4  C1CCC(C(CC2CCCCN2)C2CCCCC2)CC1 (centres undefined)              44

Below is a list of compounds. For each, state its recorded ALANINE AMINOTRANSFERASE.
1. CC(C)(C)NC(=O)[C@@H]1C[C@@H]2CCCC[C@@H]2CN1C[C@@H](O)[C@H](Cc1ccccc1)NC(=O)[C@H](CC(N)=O)NC(=O)c1ccc2ccccc2n1
2. CCCCc1oc2ccccc2c1C(=O)c1cc(I)c(OCCN(CC)CC)c(I)c1
3. Cc1nc2n(c(=O)c1CCN1CCC(c3noc4cc(F)ccc34)CC1)CCCC2
4. OCCN(CCO)c1nc(N2CCCCC2)c2nc(N(CCO)CCO)nc(N3CCCCC3)c2n1

[out]
[46.5, 26.33, 26.33, 46]

---

species on record: Rattus norvegicus; assay: DrugMatrix - Regimen: Daily Repeat; assay type: toxicity, organism-based, Sprague-Dawley; parameters: regimen Daily Repeat, gender Male, age 6-8 weeks; settings: in vivo, ip, 0 mg/kg, […], tissue Blood, route intraperitoneal, dose level Control, time 14 day, vehicle 100 % SALINE
measurementName: ABSOLUTE MONOCYTE (cells/µL)
Answers are plain numbers, in cells/µL.

[in] State the recorded ABSOLUTE MONOCYTE for this entry: LEAD (II) ACETATE
[out] 400
